read-out: Actin alpha 1 (ACTA1), ACTA1 (gene 58); assay: BSK_MyoF_ACTA1: BioMAP Diversity Plus: MyoF Assay for Actin alpha 1 (ACTA1) Biomarker Activity (AID 2284244); details: primary human lung fibroblasts
The source made the active and inactive calls. Rule for the calls: active = hit-call score of the fitted dose curve at least 0.9, where 1 is the maximum; inactive = score below 0.9.
Lab note: assign the record to one of label 1 (active), label 0 (inactive)

Field: example entries. Status: answers known.
| compound | assigned class |
| --- | --- |
| Cc1cnccn1 | label 0 |
| NC(O)(C(F)(F)F)C(F)(F)F | label 0 |
| Cc1ccc(O)c(-n2nc3ccccc3n2)c1 | label 0 |
| OCC(O)CC(F)(F)C(F)(F)C(F)(F)C(F)(F)F (stereo not given) | label 0 |
| FC(F)(F)C(F)(F)C(F)(F)C(F)(F)C(F)(F)C(F)(F)CC[Si](Cl)(Cl)Cl | label 0 |
| CC1=CC2C3C=CC(C3)C2C1C (stereo not given) | label 0 |
| Nc1cc([N+](=O)[O-])cc(Cl)c1O | label 0 |
| O=C1C=CC(=O)N1c1ccc(Cc2ccc(N3C(=O)C=CC3=O)cc2)cc1 | label 1 |
| CN(C(=O)C(F)(F)C(F)(F)C(F)(F)F)[Si](C)(C)C | label 0 |

# ---- query compound ----
Task: Recorded call for "O=S(=O)(O)CCC(F)(F)C(F)(F)C(F)(F)C(F)(F)F" ?
Result: label 0

These measurements were taken from PubChem BioAssay (EPA / NIEHS).
